procedure-summary: gradient 5% acetonitrile 3 min, to 50% in 2 min, to 85% in 15 min, held 3 min, 100 µL/min
run-parameters: column: Zorbax Extend-C18 2.1 x 50 mm; eluents: water / acetonitrile, 0.1% formic acid
Below, each entry is listed with its recorded RP-LC retention time.
assay-readout: RP-LC retention time (s)

INSERT INTO assay_data (chem_smiles, reported) VALUES
  ('O=C(NCc1cccs1)C(=O)NCC1(c2cccs2)CC1', 860),
  ('O=C(Nc1ccccc1F)N1CC(c2nc(CCOCC3CCCC3)no2)C1', 946),
  ('CCc1ccc(NC(=O)Cn2c(N)nc(CC)c(C)c2=O)cc1', 639),
  ('Cc1cccc(N2CCN(c3cc(C(=O)O)c4cc(NC(=O)C5CCC5)ccc4n3)CC2)c1C', 777),
  ('CC(C)(C)n1ncc2c(=O)n(NC(=O)c3cc(=O)c4ccccc4o3)cnc21', 713),
  ('Cc1ccc(S(=O)(=O)N2C[C@@H](F)C[C@H]2C(=O)N2CCCCC2)cc1C', 823),
  ('CC(C)CC(=O)N1CCC2(CC1)NCc1ccccc1-n1ccnc12', 594),
  ('O=C(NCCC1=CCCCC1)c1c(OCC2CC2)cc(=O)n2c1CCCCC2', 887),
  ('Cc1nc2nc(-c3ccccc3)nn2c(C)c1CC(=O)N1CCC(C)CC1', 846),
  ('O=C(NCCCn1nc(-c2ccco2)ccc1=O)Nc1ccc2c(c1)OCO2', 678);

All values here come from the METLIN SMRT retention time set (Domingo-Almenara et al. 2019).
